- tested target: CK1α (Homo sapiens, UniProt P48729+Q96SW2)
- Construct: CSNK1A1-HiBit KI HEK293(LgBit) Cells; host or cells: HEK293(LgBit) knock-in cells
- Sequence (P48729 whole entry): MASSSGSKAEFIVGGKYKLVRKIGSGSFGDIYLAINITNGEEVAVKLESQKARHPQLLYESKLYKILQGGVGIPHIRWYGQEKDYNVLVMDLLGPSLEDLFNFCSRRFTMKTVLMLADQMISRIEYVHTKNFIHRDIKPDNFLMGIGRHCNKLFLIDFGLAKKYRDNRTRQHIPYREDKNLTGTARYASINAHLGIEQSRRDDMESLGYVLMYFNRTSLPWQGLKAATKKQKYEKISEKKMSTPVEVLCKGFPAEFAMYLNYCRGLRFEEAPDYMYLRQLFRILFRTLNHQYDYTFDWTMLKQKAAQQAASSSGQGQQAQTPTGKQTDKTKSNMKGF
- Sequence (Q96SW2 whole entry): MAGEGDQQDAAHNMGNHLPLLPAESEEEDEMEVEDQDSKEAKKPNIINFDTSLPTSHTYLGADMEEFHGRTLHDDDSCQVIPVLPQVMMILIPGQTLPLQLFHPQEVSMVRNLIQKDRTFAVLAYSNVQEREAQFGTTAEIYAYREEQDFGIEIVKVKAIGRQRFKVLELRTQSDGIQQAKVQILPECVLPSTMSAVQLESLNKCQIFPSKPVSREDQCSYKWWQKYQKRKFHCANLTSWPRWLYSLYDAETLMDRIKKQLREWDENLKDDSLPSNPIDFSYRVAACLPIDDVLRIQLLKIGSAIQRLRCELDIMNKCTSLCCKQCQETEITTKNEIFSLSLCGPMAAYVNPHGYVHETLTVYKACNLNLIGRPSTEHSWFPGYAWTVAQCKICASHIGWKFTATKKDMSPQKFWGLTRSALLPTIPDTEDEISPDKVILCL
- Sequence (Q16531 whole entry partner): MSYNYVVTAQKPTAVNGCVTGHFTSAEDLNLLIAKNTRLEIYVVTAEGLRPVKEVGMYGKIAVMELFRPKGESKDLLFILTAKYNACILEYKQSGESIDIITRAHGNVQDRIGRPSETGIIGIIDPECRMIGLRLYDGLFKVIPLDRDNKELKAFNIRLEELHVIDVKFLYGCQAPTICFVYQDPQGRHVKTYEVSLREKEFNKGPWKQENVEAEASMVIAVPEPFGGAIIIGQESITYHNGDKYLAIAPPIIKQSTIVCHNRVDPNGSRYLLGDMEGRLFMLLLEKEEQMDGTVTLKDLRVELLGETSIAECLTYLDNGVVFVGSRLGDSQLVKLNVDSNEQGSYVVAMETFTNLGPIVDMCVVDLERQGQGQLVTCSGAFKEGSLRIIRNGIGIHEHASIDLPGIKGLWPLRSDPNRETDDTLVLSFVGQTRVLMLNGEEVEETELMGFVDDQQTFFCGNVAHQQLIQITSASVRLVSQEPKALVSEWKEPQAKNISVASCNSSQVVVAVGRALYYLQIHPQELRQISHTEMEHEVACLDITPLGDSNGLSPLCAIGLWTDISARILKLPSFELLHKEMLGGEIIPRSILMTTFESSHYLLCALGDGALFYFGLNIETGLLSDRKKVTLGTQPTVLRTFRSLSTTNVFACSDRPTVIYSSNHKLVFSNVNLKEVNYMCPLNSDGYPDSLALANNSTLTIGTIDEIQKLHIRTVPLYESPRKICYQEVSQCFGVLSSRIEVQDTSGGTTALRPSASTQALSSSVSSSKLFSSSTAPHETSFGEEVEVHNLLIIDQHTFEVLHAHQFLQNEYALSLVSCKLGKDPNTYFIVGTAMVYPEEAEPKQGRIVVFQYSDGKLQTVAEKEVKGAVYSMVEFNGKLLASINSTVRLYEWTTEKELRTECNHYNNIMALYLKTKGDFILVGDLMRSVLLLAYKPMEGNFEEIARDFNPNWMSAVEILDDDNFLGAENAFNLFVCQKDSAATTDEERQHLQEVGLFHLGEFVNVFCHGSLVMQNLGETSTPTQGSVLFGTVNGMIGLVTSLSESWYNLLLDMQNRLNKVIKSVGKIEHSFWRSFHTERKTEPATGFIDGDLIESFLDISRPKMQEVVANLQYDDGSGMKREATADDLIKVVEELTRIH
- measurement notes: HiBiT degradation assay, CK1α, Procedure A
- Format: cell-based
- reported conditions: six hours incubation
metric: DC50

> print(dat)
                                   compound                             tested.target   result
1  Cn1c(-c2ccc3c(c2)CN(C2CCC(=O)NC2=O)C3=O)cnc1-c1ccccc1 (stereo not shown)  CK1α (Homo sapiens, UniProt P48729+Q96SW2)  ≥ 25 nM
2  Cn1cnc(-c2ccc3c(c2)CN(C2CCC(=O)NC2=O)C3=O)c1-c1ccccc1Cl (stereo not shown)  CK1α (Homo sapiens, UniProt P48729+Q96SW2)  < 25 nM
3  Cn1cnc(-c2ccc3c(c2)CN(C2CCC(=O)NC2=O)C3=O)c1-c1ccccc1C1CC1 (stereo not shown)  CK1α (Homo sapiens, UniProt P48729+Q96SW2)  < 25 nM

Next up:
INPUT: Find the measured DC50 of Cn1ncc(-c2ccc3c(c2)CN(C2CCC(=O)NC2=O)C3=O)c1-c1ccc(COc2ccccc2)cc1 (stereo not shown) and report it.
OUTPUT: < 25 nM
